Source of measurements: patent US8841413B2

SYSTEM_TESTED: Human GLP-1 receptor (Homo sapiens)
Construct: The full-length cDNA was cloned in pcDNA3.1(+); expressed in transfected cells
Sequence (P43220 24-463): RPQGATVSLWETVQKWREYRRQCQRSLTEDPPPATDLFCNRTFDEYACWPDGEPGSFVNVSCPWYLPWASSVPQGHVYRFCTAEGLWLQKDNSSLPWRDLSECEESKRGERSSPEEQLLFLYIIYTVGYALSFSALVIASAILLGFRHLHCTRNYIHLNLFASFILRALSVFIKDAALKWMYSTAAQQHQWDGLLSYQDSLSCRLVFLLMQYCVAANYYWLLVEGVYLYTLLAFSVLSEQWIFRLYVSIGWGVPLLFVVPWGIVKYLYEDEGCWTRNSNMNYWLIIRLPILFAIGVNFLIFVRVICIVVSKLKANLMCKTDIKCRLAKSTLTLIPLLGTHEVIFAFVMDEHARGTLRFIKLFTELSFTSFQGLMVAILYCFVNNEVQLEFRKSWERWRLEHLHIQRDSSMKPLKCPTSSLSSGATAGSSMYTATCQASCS
Type: cell-based
CONDITION_DESCRIPTION: 10 μM test compound
VALUE_KIND: Human GLP-1 R activity (cAMP release), % activity with respect to control (%)

| MOLECULE | UOM | EXPERIMENTAL_VALUE |
| --- | --- | --- |
| CCc1cc(OC)ccc1-c1ccc(CC(NC(=O)[C@H](CC(=O)O)NC(=O)[C@H](CO)NC(=O)[C@@H](NC(=O)C(C)(Cc2ccccc2F)NC(=O)[C@@H](NC(=O)CNC(=O)[C@H](CCC(N)=O)NC(=O)C(C)(C)NC(=O)[C@@H](N)Cc2c[nH]cn2)[C@@H](C)O)[C@@H](C)O)C(=O)NC(Cc2ccc(-c3ccccc3C)cc2)C(N)=O)cc1 (single isomer, unassigned) | % | 99 |
| CCc1cc(OC)ccc1-c1ccc(CC(NC(=O)[C@H](CC(=O)O)NC(=O)[C@H](CO)NC(=O)[C@@H](NC(=O)[C@H](Cc2ccccc2)NC(=O)[C@@H](NC(=O)CNC(=O)[C@H](CCC(N)=O)NC(=O)C2(NC(=O)[C@@H](N)Cc3c[nH]cn3)CC2)[C@@H](C)O)[C@@H](C)O)C(=O)NC(Cc2ccc(-c3ccccc3C)cc2)C(N)=O)cc1 (single isomer, unassigned) | % | 99 |
